What Tmax was measured for each of the following?
# test description: Tmax in ICR mouse at 10 mg/kg, po
# Assay type: ADME, organism-based
# particulars: in vivo
Give the quantity in h, number only.

## Task # query: Tmax of entry C[C@@H](O)C(=O)N1CCc2cc(Nc3ncc(C(F)(F)F)c(N[C@H]4CC[C@@H](N)CC4)n3)ccc2C1
## Result 2

## Task // repeat for CC(=O)N1CCc2cc(Nc3ncc(C(F)(F)F)c(N[C@H]4CC[C@@H](N)CC4)n3)ccc2C1 and report
## Result 2

## Task // repeat for CC(C)(O)CC(=O)N1Cc2ccc(Nc3ncc(C(F)(F)F)c(N[C@H]4CC[C@@H](N)CC4)n3)cc2C1 and report
## Result 1

## Task // repeat for CC(C)(O)C(=O)N1Cc2ccc(Nc3ncc(C(F)(F)F)c(N[C@H]4CC[C@@H](N)CC4)n3)cc2C1 and report
## Result 2

## Task // repeat for CC(=O)N1Cc2ccc(Nc3ncc(C(F)(F)F)c(N[C@H]4CC[C@@H](N)CC4)n3)cc2C1 and report
## Result 2

## Task // repeat for CC(C)(O)C(=O)N1CCc2ccc(Nc3ncc(C(F)(F)F)c(N[C@H]4CC[C@@H](N)CC4)n3)cc2C1 and report
## Result 0.25

## Task // repeat for N[C@H]1CC[C@@H](Nc2nc(Nc3ccc4c(c3)CCN(C(=O)CO)C4)ncc2C(F)(F)F)CC1 and report
## Result 1

## Task // repeat for CC(C)(O)CC(=O)N1CCc2cc(Nc3ncc(C(F)(F)F)c(N[C@H]4CC[C@@H](N)CC4)n3)ccc2C1 and report
## Result 2

---

# target entity: Ribosomal protein S6 kinase beta-1 (Homo sapiens, UniProt P23443)
# Sequence (P23443 whole entry): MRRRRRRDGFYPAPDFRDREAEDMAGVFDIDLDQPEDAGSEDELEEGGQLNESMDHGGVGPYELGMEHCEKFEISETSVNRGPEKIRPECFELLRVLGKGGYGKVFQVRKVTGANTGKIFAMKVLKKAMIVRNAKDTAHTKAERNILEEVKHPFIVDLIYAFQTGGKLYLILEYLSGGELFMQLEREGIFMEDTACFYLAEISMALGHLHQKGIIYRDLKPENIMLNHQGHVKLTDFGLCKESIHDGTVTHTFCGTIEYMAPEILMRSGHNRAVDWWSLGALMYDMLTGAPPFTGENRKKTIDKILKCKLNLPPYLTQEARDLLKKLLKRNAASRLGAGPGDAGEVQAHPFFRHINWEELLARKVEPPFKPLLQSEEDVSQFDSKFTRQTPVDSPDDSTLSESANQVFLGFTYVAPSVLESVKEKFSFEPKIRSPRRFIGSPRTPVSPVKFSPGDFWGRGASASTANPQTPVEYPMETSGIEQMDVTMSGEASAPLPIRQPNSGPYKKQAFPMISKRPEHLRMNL
result type: IC50

## Task # query: IC50 of entry CC(C)(O)CC(=O)N1CCc2cc(Nc3ncc(C(F)(F)F)c(N[C@H]4CC[C@@H](N)CC4)n3)ccc2C1
## Result 91.6 nM

---

# test description: AUC (last) in ICR mouse at 10 mg/kg, po
# Assay type: ADME, organism-based
# Set-up: dose 10 mg/kg, route po
# particulars: in vivo
What log10 AUC(0-t) was measured for each of the following?
Heads up, the numbers here are log10 of AUC(0-t) in ng·h/mL units.

## Task # query: log10 AUC(0-t) of entry C[C@@H](O)C(=O)N1CCc2cc(Nc3ncc(C(F)(F)F)c(N[C@H]4CC[C@@H](N)CC4)n3)ccc2C1
## Result 2.34

## Task // repeat for CC(C)(O)C(=O)N1Cc2ccc(Nc3ncc(C(F)(F)F)c(N[C@H]4CC[C@@H](N)CC4)n3)cc2C1 and report
## Result 2.76

## Task // repeat for N[C@H]1CC[C@@H](Nc2nc(Nc3ccc4c(c3)CCN(C(=O)CO)C4)ncc2C(F)(F)F)CC1 and report
## Result 2.53

## Task // repeat for CC(C)(O)C(=O)N1CCc2ccc(Nc3ncc(C(F)(F)F)c(N[C@H]4CC[C@@H](N)CC4)n3)cc2C1 and report
## Result 1.27

## Task // repeat for CC(=O)N1CCc2cc(Nc3ncc(C(F)(F)F)c(N[C@H]4CC[C@@H](N)CC4)n3)ccc2C1 and report
## Result 3.03

## Task // repeat for CC(C)(O)CC(=O)N1CCc2cc(Nc3ncc(C(F)(F)F)c(N[C@H]4CC[C@@H](N)CC4)n3)ccc2C1 and report
## Result 3.20

## Task // repeat for CC(=O)N1Cc2ccc(Nc3ncc(C(F)(F)F)c(N[C@H]4CC[C@@H](N)CC4)n3)cc2C1 and report
## Result 1.99

## Task // repeat for CC(C)(O)CC(=O)N1Cc2ccc(Nc3ncc(C(F)(F)F)c(N[C@H]4CC[C@@H](N)CC4)n3)cc2C1 and report
## Result 2.00
